# assay-target: HIV-1 reverse transcriptase (Human immunodeficiency virus 1, UniProt P03366;P03366 P03366:600-1159,P03366:600-1039)
# assay-protocol: filter; competition against RT1 gave Kc 3 nM (Example 5, FIG. 14)
# test-context: tags: expressed in E. coli, purified per Davies et al. 1991; pseudoknot

binder	Kd / nM
GGUCCGAAGUGCAACGGGAAAAUGCACU (ssRNA) [RNA pseudoknot (RNA pk)]	5
